Counter-ions that a name gives are not always drawn.
# melting point listing for each entry below

Consider the reported melting point for these compounds:
The reported value for "CC(=O)N1CCC(NC(=O)c2c[nH]c3ncc(C4CC4)nc23)CC1" in terms of melting point is 273 to 275 °C

The reported value for "Cc1ccc(C#N)cc1NC(=O)c1c[nH]c2ncc(C3CC3)nc12" in terms of melting point is 280 to 284 °C

The reported value for CS(=O)(=O)N1CCC(NC(=O)c2c[nH]c3ncc(C4CC4)nc23)C1 (centres unmarked) in terms of melting point is > 300 °C

The reported value for CC1(C)CCCCC1NC(=O)c1c[nH]c2ncc(C3CC3)nc12 (centres unmarked) in terms of melting point is 295 to 297 °C

Others:
The reported value for CC(C)(O)C1(NC(=O)c2c[nH]c3ncc(C4CC4)nc23)CCNC1 (centres unmarked) (as salt: hydrochloride) in terms of melting point is 200 to 203 °C

The reported value for CC(=O)N1CCCC(NC(=O)c2c[nH]c3ncc(C4CC4)nc23)C1 (centres unmarked) in terms of melting point is 215 to 218 °C

The reported value for CC1(C)CCCC1NC(=O)c1c[nH]c2ncc(C3CC3)nc12 (centres unmarked) in terms of melting point is > 300 °C

The reported value for "CS(=O)(=O)N1CCC[C@H](NC(=O)c2c[nH]c3ncc(C4CC4)nc23)C1" in terms of melting point is 278 to 281 °C

The reported value for "N#Cc1cccc(NC(=O)c2c[nH]c3ncc(C4CC4)nc23)c1" in terms of melting point is 272 to 274 °C

The reported value for "CS(=O)(=O)N1CCC(NC(=O)c2c[nH]c3ncc(C4CC4)nc23)CC1" in terms of melting point is 278 to 280 °C

The reported value for C[C@]1(O)CCC[C@@H]1NC(=O)c1c[nH]c2ncc(C3CC3)nc12 (relative stereo) in terms of melting point is 260 to 262 °C

The reported value for "O=C(NC1CCOCC1)c1c[nH]c2ncc(C3CC3)nc12" in terms of melting point is > 300 °C

---

# assaySystem: JAK3: Recombinant human kinase domain (h-jak3-sf21-c) (Homo sapiens, UniProt P52333)
# Construct: JAK3: Recombinant human kinase domain from Millipore (Cat # 14-629) or prepared
# Sequence (P52333 822-1111 limits assumed): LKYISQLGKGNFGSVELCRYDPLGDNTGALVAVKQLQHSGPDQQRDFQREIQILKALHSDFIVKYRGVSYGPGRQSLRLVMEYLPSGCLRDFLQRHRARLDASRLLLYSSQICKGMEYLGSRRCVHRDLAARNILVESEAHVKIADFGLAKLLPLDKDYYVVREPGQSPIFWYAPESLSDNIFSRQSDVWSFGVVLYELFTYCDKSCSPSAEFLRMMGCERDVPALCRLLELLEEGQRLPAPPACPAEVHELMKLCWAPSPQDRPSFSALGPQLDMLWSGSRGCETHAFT
# assay: Determination of IC50 of Janus Kinase (JAK) inhibition, JAK3 (radioactive end-point assay with 33P-ATP)
# statedConditions: ATP 1.5 uM, peptide 50 uM, 20 minutes, room temperature
pIC50: −log10 of the molar value.
propertyLabel: pIC50

Consider the reported pIC50 for these compounds:
The reported value for O=C(NC1(C(=O)C2CC2)CCCC1)c1c[nH]c2ncc(C3CC3)nc12 [Compound I-19] in terms of pIC50 is 5.98

The reported value for CS(=O)(=O)N1CCC[C@@H](NC(=O)c2c[nH]c3ncc(C4CC4)nc23)C1 [Compound I-31] in terms of pIC50 is 8.43

The reported value for CC(C)(O)C1(NC(=O)c2c[nH]c3ncc(C4CC4)nc23)CCOC1 (centres unmarked) [Compound I-18] in terms of pIC50 is 6.47

The reported value for N#CCC1(NC(=O)c2c[nH]c3ncc(C4CC4)nc23)CCCC1 [Compound I-26] in terms of pIC50 is 7.58

The reported value for O=C(NC1CCCOC1)c1c[nH]c2ncc(C3CC3)nc12 (centres unmarked) [Compound I-6] in terms of pIC50 is 7.81

The reported value for CS(=O)(=O)N1CCC[C@H](NC(=O)c2c[nH]c3ncc(C4CC4)nc23)C1 [Compound I-30] in terms of pIC50 is 7.26

a. CS(=O)(=O)N1CCC(NC(=O)c2c[nH]c3ncc(C4CC4)nc23)C1 (centres unmarked) [Compound I-20]
b. CCn1cc(-c2cnc3[nH]cc(C(=O)NC4CCCCC4(C)C)c3n2)cn1 (centres unmarked) [Compound I-39]
Hi, I'm comparing a with b and wondering which one has the bigger number for pIC50. Any idea? // respond with label for picked entry
b

Data provenance is patent US8329699B2.
